Taken from patent US6737383B1.

Test system: purple nutsedge
Assay: Test B pre/postemergence purple nutsedge
Format: in vivo, Cyperus rotundus
Details: Rate 500 g/ha, Preemergence; scale 0 to 10 (0 no effect, 10 complete control)
Assay Metric: Nutsedge plant response rating
Output spec: single numeric token, no unit.

The cases that follow already have their Nutsedge plant response rating on record.
C#CCn1c(=O)on(C(=O)N(c2ccccc2)C(C)C)c1=O [Compound 754] : 10
CC(C)N(C(=O)n1oc(=O)n(CCN(C)C(=O)c2ccccc2)c1=O)c1ccc(F)cc1F [Compound 762] : 6
CON=CC(C)n1c(=O)on(C(=O)N(c2ccccc2)C(C)C)c1=O (stereo not shown) [Compound 790] : 0
CCOC(CC)n1c(=O)on(C(=O)N(c2ccc(F)cc2)C(C)C)c1=O (stereo not shown) [Compound 742] : 0
COC(=O)C(c1ccccc1)n1c(=O)on(C(=O)N(c2ccc(Cl)cc2)C(C)C)c1=O (stereo not shown) [Compound 724] : 0
Cc1nc(C(C)n2c(=O)on(C(=O)N(c3ccc(F)cc3)C(C)C)c2=O)sc1C (stereo not shown) [Compound 757] : 0

Then there is this molecule:
What value of Nutsedge plant response rating has been recorded for this entry: COC(CCl)n1c(=O)on(C(=O)N(c2ccc(Cl)cc2)C(C)C)c1=O (stereo not shown) [Compound 725]
0

----------
System: wild oat
Assay: Test B pre/postemergence wild oat
Assay type: in vivo, Avena fatua
Conditions: Postemergence, Rate 500 g/ha; scale of 0 to 10 where 0 is no effect and 10 is complete control
This section presents compounds with their documented Plant response rating, Wild oats values.
I only need the number, thanks.

# get_value(readout='Plant response rating, Wild oats', item= CCN(CC)C(=O)Cn1c(=O)on(C(=O)N(c2ccccc2)C(C)C)c1=O [Compound 571] )
0

----------
Parameter Bedstraw plant response rating: see the listing below.
System: bedstraw
Assay: Test B pre/postemergence bedstraw
Assay type: in vivo, Galium aparine
Details: Rate 125 g/ha, Postemergence; scale 0 to 10
Output spec: single numeric token, no unit.

API: value(readout= Bedstraw plant response rating, system= bedstraw, query= "CC(C)N(C(=O)n1oc(=O)n(N(C)C)c1=O)c1ccccc1" )
0

Look up Bedstraw plant response rating with bedstraw for this compound: "C=C(C)CCn1c(=O)on(C(=O)N(c2ccc(F)cc2)C(C)C)c1=O"
0

Form: Entry = "CC(C)N(C(=O)n1oc(=O)n(CCC2OCCCO2)c1=O)c1ccc(F)cc1" | System = bedstraw | Bedstraw plant response rating = ____
0

# get_value(readout= Bedstraw plant response rating, system= bedstraw) for "CC(=O)Cn1c(=O)on(C(=O)N(c2ccc(F)cc2)C(C)C)c1=O"
0

Kindly state the measured Bedstraw plant response rating obtained for "CCN(CC)C(=O)Cn1c(=O)on(C(=O)N(c2ccc(F)cc2)C(C)C)c1=O" with bedstraw.
6

----------
Each entry below carries its reported Plant response rating, Giant foxtail.
Test system: giant foxtail
Assay: Test B pre/postemergence giant foxtail
Type: in vivo, Setaria faberii
Settings: Postemergence, Rate 125 g/ha; scale 0 to 10, 0 is no effect, 10 is complete control
Experimental: […] At the same time, these crop and weed species were also treated with postemergence applications of test chemicals formulated in the same manner. […] Treated plants and controls were maintained in a greenhouse for twelve to sixteen days, after which all species were compared to controls and visually evaluated. […]
# respond with the number and nothing more

Form field: Plant response rating, Giant foxtail recorded for "CC(C)N(C(=O)n1oc(=O)n(-c2ccc3ccccc3c2)c1=O)c1ccc(F)cc1" with giant foxtail (enter value)
0

Entry CCOC(=O)C(C)N(C(=O)n1oc(=O)n(-c2c(C)cccc2OC)c1=O)c1ccc(F)cc1 (stereo not shown) , system giant foxtail: what Plant response rating, Giant foxtail was measured?
0

----------
The reader will find reported Corn plant response rating values listed item by item below.
System: corn
Test: Test B pre/postemergence corn
Format: in vivo, Zea mays
Conditions: Rate 500 g/ha, Postemergence; scale 0 to 10
Protocol: […] At the same time, these crop and weed species were also treated with postemergence applications of test chemicals formulated in the same manner. […] Treated plants and controls were maintained in a greenhouse for twelve to sixteen days, after which all species were compared to controls and visually evaluated. […]
API doc: respond with a numeric literal and nothing else, no unit.

Before answering, review these 4 worked examples.
Cc1ccccc1-n1c(=O)on(C(=O)N(c2ccc(Cl)cc2Cl)C(C)C)c1=O : 0
C=C(C)CCn1c(=O)on(C(=O)N(c2ccc(F)cc2)C(C)C)c1=O : 0
CC(C)N(C(=O)n1oc(=O)n(C(C)C)c1=O)c1ccc(F)cc1 : 7
C=CCn1c(=O)on(C(=O)N(c2ccc(F)cc2F)C(C)C)c1=O : 6

Now look at this entry.
// map "CC(C)N(C(=O)n1oc(=O)n(Cc2ccco2)c1=O)c1ccc(F)cc1F" to recorded Corn plant response rating (system: corn)
0

----------
Measured Plant response rating, Rape values are reported for all entries that follow.
Test system: rape
Test: Test B pre/postemergence rape
Format: in vivo, Brassica napus
Conditions: Postemergence, Rate 62 g/ha; scale 0 to 10, 0 is no effect, 10 is complete control
Lab note: record the figure alone, no unit after it.

Record excerpt, results attached:
C#CCn1c(=O)on(C(=O)N(c2ccccc2)C(C)C)c1=O : 0
C#CC(C)n1c(=O)on(C(=O)N(c2ccc(Cl)cc2)C(C)C)c1=O (racemic) : 0
C#CC(C)n1c(=O)on(C(=O)N(c2ccc(F)cc2F)C(C)C)c1=O (racemic) : 0
CC(C)N(C(=O)n1oc(=O)n(CCCCl)c1=O)c1ccc(Cl)cc1 : 2
CC(C)N(C(=O)n1oc(=O)n(CCCCCl)c1=O)c1ccccc1 : 3

Fill blank: measured Plant response rating, Rape of the compound "C=C(Cl)Cn1c(=O)on(C(=O)N(c2ccc(F)cc2F)C(C)C)c1=O" is ____.
0

Data request, read-out Plant response rating, Rape, for "C=C(Cn1c(=O)on(C(=O)N(c2ccccc2)C(C)C)c1=O)c1cccc(Cl)n1"
0

Would you mind telling me what Plant response rating, Rape value was observed for "CC(C)N(C(=O)n1oc(=O)n(C[C@H](C)Cl)c1=O)c1ccc(Cl)cc1" ?
0

----------
Parameter Plant response rating, Sugarbeets: see the listing below.
System: sugar beet
Experiment: Test B pre/postemergence sugar beet
Type: in vivo, Beta vulgaris
Conditions: Preemergence, Rate 500 g/ha; scale of 0 to 10 where 0 is no effect and 10 is complete control
No unit in the answer, only the number.

CC(C)N(C(=O)n1oc(=O)n(CSC#N)c1=O)c1ccc(F)cc1 [Compound 618] : 0

Bench note: what Plant response rating, Sugarbeets did CC(C)N(C(=O)n1oc(=O)n(CC(C)(C)C)c1=O)c1ccc(F)cc1F [Compound 277] show?
7

Looking for the measured Plant response rating, Sugarbeets of CC(C)N(C(=O)n1oc(=O)n(CC2CCCCO2)c1=O)c1ccc(Cl)cc1 (stereo not drawn) [Compound 660] , can you help?
0

What does the record list as Plant response rating, Sugarbeets for C#CC(C)n1c(=O)on(C(=O)N(c2ccc(F)cc2F)C(C)C)c1=O (racemic) [Compound 657] ?
9

Reported Plant response rating, Sugarbeets, molecule CSc1ccc(N(C(=O)n2oc(=O)n(-c3ccccc3C)c2=O)C(C)C)cc1 [Compound 205] : ____
0

Can you look up the measured Plant response rating, Sugarbeets of COCCn1c(=O)on(C(=O)N(c2ccc(F)cc2)C(C)C)c1=O [Compound 627] for me?
9

----------
Test system: giant foxtail
Assay: Test B pre/postemergence giant foxtail
Assay type: in vivo, Setaria faberii
Settings: Postemergence, Rate 250 g/ha; scale of 0 to 10, 0 is no effect, 10 is complete control
Assay Metric: Giant foxtail plant response rating
Form: value (number only, do not type unit).

Using the record for CC(C)N(C(=O)n1oc(=O)n(CC2CCCCO2)c1=O)c1ccccc1 (centres unmarked) [Compound 659] , report its Giant foxtail plant response rating.
8

What value of Giant foxtail plant response rating has been recorded for this entry: CC(C)N(C(=O)n1oc(=O)n(C(C)C)c1=O)c1ccncc1 [Compound 663]
0

Item under review: CC(C)N(C(=O)n1oc(=O)n(CCC2=NOCCC2)c1=O)c1ccc(F)cc1 [Compound 656] . Reported Giant foxtail plant response rating?
9

I have this compound here, CC(C)N(C(=O)n1oc(=O)n(CC(=O)N(C)C)c1=O)c1ccccc1 [Compound 588] , and I need its recorded Giant foxtail plant response rating.
8

Recorded Giant foxtail plant response rating of COCCn1c(=O)on(C(=O)N(c2ccc(F)cc2)C(C)C)c1=O [Compound 627] , please.
9

----------
The entries below are paired with their reported Rape plant response rating.
Test system: rape
Assay: Test B pre/postemergence rape
Type: in vivo, Brassica napus
Conditions: Preemergence, Rate 500 g/ha; scale of 0 to 10 where 0 is no effect and 10 is complete control
Field format: numeric only.

Known results for compounds:
CC(C)N(C(=O)n1oc(=O)n(CCC#N)c1=O)c1ccc(F)cc1 : 8
CC(C)N(C(=O)n1oc(=O)n(CCCC(F)(F)F)c1=O)c1ccccc1 : 10

Recorded Rape plant response rating for "Cc1ccc(N(C(=O)n2oc(=O)n(-c3ccc4ccccc4c3)c2=O)C(C)C)cc1" , please?
0

May I ask what Rape plant response rating has been recorded for "CC(C)N(C(=O)n1oc(=O)n(CCCCF)c1=O)c1ccc(F)cc1F" ?
6
